- Tested on: P. falciparum 3D7 growth, pLDH absorbance
- test: blood-stage malaria parasite growth potency – strain 3D7, dose response (AID 2305)
Label key: satisfied means IC50 under 800 nM; not satisfied means IC50 of 800 nM or more.

Illustrative cases are given below, each with its answer.
Incoming: Identify whether the molecule `COCCNCc1cccc(-c2ccc(CN(C(=O)NC3CCCCC3)C3CCN(Cc4ccccc4)CC3)cc2)c1` records IC50 below 800 nM.
Outgoing: satisfied

Incoming: Identify whether the molecule `NS(=O)(=O)c1cccc(N=Cc2c(O)[nH]c3ccc(S(=O)(=O)Cc4c(Cl)cccc4Cl)cc23)c1` records IC50 below 800 nM.
Outgoing: satisfied

Incoming: IC50 under 800 nM? Item: CCC(NC(=O)c1ccccc1NC(=O)c1ccc(C)cc1)C(=O)OC (stereo unspecified)
Outgoing: satisfied

Others:
Incoming: IC50 under 800 nM? Item: COc1cccc(Nc2c(C(N)=O)cnc3ccc(-c4ccc(S(C)=O)cc4)cc23)c1 (stereo unspecified)
Outgoing: satisfied

Incoming: Does `CCOc1ccc(Nc2cc(C)nc(Nc3ccc(OCC)cc3)n2)cc1` have IC50 strictly under 800 nM?
Outgoing: not satisfied

Incoming: Is the reported IC50 for Cc1cccc2[nH]c(-c3ccc(-c4cccc(CN5CCCC5CN)c4)cc3)nc12 (stereo unspecified) strictly below 800 nM?
Outgoing: not satisfied
